Collected GI50 values appear next to each entry.
# System: SK-MEL-28
# Method Notes: NCI tumour cell line growth inhibition, 48 h
Calls of active or inactive are those of the source. Rule as the data show it: active = GI50 up to about 1.1 µM and inactive = higher.
Measurement Label: GI50

CCOC1=NC(O)c2cccn2-c2sccc21 (stereo not drawn) ... > 100 µM (inactive)
COC(=O)C(=O)c1cc2ccccc2n1S(=O)(=O)c1ccccc1 ... > 100 µM (inactive)
CC(=O)NC(CCCCNC(=O)N(C)N=O)C(=O)NCc1ccccc1 (stereo not drawn) ... > 100 µM (inactive)
COc1ccc(C(=O)/C=C/c2ccc(OCCCCCCCCCCOc3ccc(/C=C/C(=O)c4ccc(OC)c(OC)c4)cc3)cc2)c(OC)c1 ... > 100 µM (inactive)
COC(=O)c1cc(C)n(NC(=O)OC(C)(C)C)c1C ... > 100 µM (inactive)
COC1(OC)C2(Cl)CCC1(Cl)C(OC(C)=O)C2 (stereo not drawn) ... > 100 µM (inactive)
C=C1[C@@H](O)C[C@@]23CC[C@@H]4[C@@]5(C)CC[C@@H](OC(C)=O)C(C)(C)[C@@H]5C[C@@H](OC5OC(COC(C)=O)C(O)C(O)C5O)[C@@]4(C)C2=CC[C@H]3[C@H]1C (stereo partly drawn) ... 7.35 µM (inactive)
COc1cc(C=O)cc(/C=N/N=C/c2ccccc2O)c1O ... 14.7 µM (inactive)

Recorded values, source ChEMBL document CHEMBL1201862.
